// data source = ChEMBL document CHEMBL5360655

experiment: Tmax in BALB/c mouse at 10 mg/kg, iv measured for 24 hrs by LC-MS/MS analysis; assay type: ADME, organism-based; details: in vivo
MEASUREMENT_NAME: Tmax (min)

* CS(=O)(=O)c1ccc(-c2ncc(C(=O)NCc3cn(-c4cc(Cl)ccn4)nn3)s2)cc1 | 4.8
* O=C(NCC1(N2CCN(c3ccccc3)CC2)CCOCC1)c1cccnc1Sc1ccccc1 | 4.8
* CS(=O)(=O)c1ccc(-c2nc(C(=O)NCc3cn(-c4cc(Br)ccn4)nn3)cs2)cc1 | 11.4
* CS(=O)(=O)c1ccc(-c2nc(C(=O)NCc3cn(-c4cc(Cl)ccn4)nn3)cs2)cc1 | 4.8
* CS(=O)(=O)c1ccc(-c2ncc(C(=O)NCc3cn(-c4cc(Br)ccn4)nn3)s2)cc1 | 83.4

----------
molecular target: UniProt Q99572; assay: Antagonist activity at human P2X7 receptor expressed in HEK293 cells assessed as inhibition of ATP-induced receptor pore formation at 1 uM by propidium iodide dye uptake based fluorescence analysis; format: cell-based
Reported values of inhibition for individual entries
MEASUREMENT_NAME: inhibition

- CS(=O)(=O)c1ccc(-c2nc(C(=O)NCc3cn(-c4cc(F)ccn4)nn3)cs2)cc1: 23.2%
- Nc1cccc(-c2ccc(Cl)c(C(=O)NCc3cn(-c4cc(Cl)ccn4)nn3)c2)c1: 21.9%
- Nc1ccc(-c2ncc(C(=O)NCc3cn(-c4cc(Cl)ccn4)nn3)s2)cc1: 39.2%
- Cc1cc(F)ccc1-c1ccc(Cl)c(C(=O)NCc2cn(-c3cc(Cl)ccn3)nn2)c1: 23.3%
- CS(=O)(=O)c1ccc(-c2ncc(C(=O)NCc3cn(-c4cccc(Br)n4)nn3)s2)cc1: 6.2%
- CS(=O)(=O)Nc1cccc(-c2ncc(C(=O)NCc3cn(-c4cc(Cl)ccn4)nn3)s2)c1: 6.8%
- CS(=O)(=O)c1cccc(-c2ncc(C(=O)NCc3cn(-c4cc(Cl)ccn4)nn3)s2)c1: 36.7%
- O=C(NCc1cn(-c2cc(Cl)ccn2)nn1)c1cc(-c2cccc3[nH]ccc23)ccc1Cl: 34.1%

----------
test: Clearance in BALB/c mouse at 10 mg/kg, po measured for 24 hrs by LC-MS/MS analysis; type: ADME, organism-based; conditions: in vivo
Record Met whenever CL/F is at 40 mL/min/kg or higher; record Not met when lower.

• CS(=O)(=O)c1ccc(-c2ncc(C(=O)NCc3cn(-c4cc(Cl)ccn4)nn3)s2)cc1 = Not met
• CS(=O)(=O)c1ccc(-c2ncc(C(=O)NCc3cn(-c4cc(Br)ccn4)nn3)s2)cc1 = Not met
• CS(=O)(=O)c1ccc(-c2nc(C(=O)NCc3cn(-c4cc(Br)ccn4)nn3)cs2)cc1 = Not met
• O=C(NCC1(N2CCN(c3ccccc3)CC2)CCOCC1)c1cccnc1Sc1ccccc1 = Met

----------
log10 of clearance listing for selected molecules.
test: Clearance in BALB/c mouse at 10 mg/kg, iv measured for 24 hrs by LC-MS/MS analysis; format: ADME, organism-based; conditions: in vivo
MEASUREMENT_NAME: log10 of clearance (log10 of the value in mL/min/kg)

• CS(=O)(=O)c1ccc(-c2nc(C(=O)NCc3cn(-c4cc(Cl)ccn4)nn3)cs2)cc1 = 1.52
• CS(=O)(=O)c1ccc(-c2ncc(C(=O)NCc3cn(-c4cc(Cl)ccn4)nn3)s2)cc1 = 0.30
• O=C(NCC1(N2CCN(c3ccccc3)CC2)CCOCC1)c1cccnc1Sc1ccccc1 = 2.73
• CS(=O)(=O)c1ccc(-c2nc(C(=O)NCc3cn(-c4cc(Br)ccn4)nn3)cs2)cc1 = 0.99
• CS(=O)(=O)c1ccc(-c2ncc(C(=O)NCc3cn(-c4cc(Br)ccn4)nn3)s2)cc1 = 0.56

----------
Each item that follows carries a reported inhibition.
biological target: P2X purinoceptor 7 (Mus musculus); test: Antagonist activity at mouse P2X7 receptor expressed in HEK293 cells assessed as inhibition of ATP-induced receptor pore formation at 10 uM by propidium iodide dye uptake based fluorescence analysis; assay type: cell-based
MEASUREMENT_NAME: inhibition

- O=C(NCc1cn(-c2cc(Cl)ccn2)nn1)c1ccc(C(F)(F)F)cc1Cl: 39.3%
- O=C(NCc1cn(-c2cc(Cl)ccn2)nn1)c1ccc(C(F)(F)F)c(Br)c1: 22.5%
- O=C(NCc1cn(-c2cc(Cl)ccn2)nn1)c1cc(Br)ccc1Cl: 10%
- O=C(NCc1cn(-c2cc(Cl)ccn2)nn1)c1cccc(C(F)(F)F)c1Cl: 13.2%
- Cc1cccc(Cl)c1C(=O)NCc1cn(-c2cc(Cl)ccn2)nn1: 34.4%

----------
Some compounds, each annotated with its measured CL/F.
assay: Clearance in BALB/c mouse at 10 mg/kg, ip measured for 24 hrs by LC-MS/MS analysis; assay type: ADME, organism-based; conditions: in vivo
MEASUREMENT_NAME: CL/F (mL/min/kg)

* CS(=O)(=O)c1ccc(-c2ncc(C(=O)NCc3cn(-c4cc(Br)ccn4)nn3)s2)cc1 | 6.83
* CS(=O)(=O)c1ccc(-c2nc(C(=O)NCc3cn(-c4cc(Br)ccn4)nn3)cs2)cc1 | 12.7
* CS(=O)(=O)c1ccc(-c2ncc(C(=O)NCc3cn(-c4cc(Cl)ccn4)nn3)s2)cc1 | 13.5
* CS(=O)(=O)c1ccc(-c2nc(C(=O)NCc3cn(-c4cc(Cl)ccn4)nn3)cs2)cc1 | 16.9

----------
assay: Intrinsic clearance in human liver microsomes; type: ADME, Microsome; settings: read-out: CLH
Documented CLint scaled across a set of molecules
MEASUREMENT_NAME: CLint scaled (mL/min/kg)

• CS(=O)(=O)Nc1cccc(-c2ccc(Cl)c(C(=O)NCc3cn(-c4cc(Cl)ccn4)nn3)c2)c1 = 30.6
• O=C(NCc1cn(-c2cc(Cl)ccn2)nn1)c1cnc(-c2cccc(NS(=O)(=O)N3CCOCC3)c2)s1 = 24.1
• CS(=O)(=O)c1ccc(-c2nc(C(=O)NCc3cn(-c4cc(Br)ccn4)nn3)cs2)cc1 = 16.6
• COc1ccc(-c2ccc(Cl)c(C(=O)NCc3cn(-c4cc(Cl)ccn4)nn3)c2)cc1OC = 17.8
• O=C(NCc1cn(-c2cc(Cl)ccn2)nn1)c1cnc(-c2ccc(NS(=O)(=O)N3CCOCC3)cc2)s1 = 15.3
• O=C(NCC1(N2CCN(c3ccccc3)CC2)CCOCC1)c1cccnc1Sc1ccccc1 = 40.9
• CC(C)S(=O)(=O)c1ccc(-c2ncc(C(=O)NCc3cn(-c4cc(Cl)ccn4)nn3)s2)cc1 = 40.4

----------
Reported IC50 values are given for each entry in this list.
target: P2X purinoceptor 7 (Homo sapiens, UniProt Q99572); test: Antagonist activity at human P2X7 receptor expressed in HEK293 cells assessed as inhibition of ATP-induced receptor pore formation by propidium iodide dye uptake based fluorescence analysis; type: cell-based
Sequence (Q99572 whole entry): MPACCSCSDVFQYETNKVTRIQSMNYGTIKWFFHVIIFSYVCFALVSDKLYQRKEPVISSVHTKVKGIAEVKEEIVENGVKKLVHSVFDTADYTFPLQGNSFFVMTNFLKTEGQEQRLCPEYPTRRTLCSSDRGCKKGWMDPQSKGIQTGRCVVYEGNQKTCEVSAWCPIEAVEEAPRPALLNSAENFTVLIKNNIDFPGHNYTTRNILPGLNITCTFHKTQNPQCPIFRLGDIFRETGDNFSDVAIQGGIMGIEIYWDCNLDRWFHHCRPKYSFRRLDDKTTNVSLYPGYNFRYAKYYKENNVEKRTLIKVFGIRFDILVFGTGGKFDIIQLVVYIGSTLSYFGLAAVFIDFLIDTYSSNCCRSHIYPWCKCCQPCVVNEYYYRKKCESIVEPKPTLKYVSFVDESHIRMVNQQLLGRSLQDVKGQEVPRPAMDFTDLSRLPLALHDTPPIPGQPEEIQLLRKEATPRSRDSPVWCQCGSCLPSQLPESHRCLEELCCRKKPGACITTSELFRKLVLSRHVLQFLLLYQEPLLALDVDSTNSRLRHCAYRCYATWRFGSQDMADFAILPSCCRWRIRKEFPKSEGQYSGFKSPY
MEASUREMENT_NAME: IC50

- Nc1cccc(-c2ncc(C(=O)NCc3cn(-c4cc(Cl)ccn4)nn3)s2)c1: 658 nM
- CS(=O)(=O)c1ccc(-c2nc(C(=O)NCc3cn(-c4ccc(Br)cn4)nn3)cs2)cc1: 811 nM
- CS(=O)(=O)Nc1cccc(-c2ccc(Cl)c(C(=O)NCc3cn(-c4cc(Cl)ccn4)nn3)c2)c1: 91.4 nM
- CS(=O)(=O)c1ccc(-c2nc(C(=O)NCc3cn(-c4cc(Br)ccn4)nn3)cs2)cc1: 64.7 nM
- CS(=O)(=O)c1ccc(-c2nc(C(=O)NCc3cn(-c4cc(Cl)ccn4)nn3)cs2)cc1: 147 nM
- O=C(NCc1cn(-c2cc(Cl)ccn2)nn1)c1cnc(-c2ccc(NS(=O)(=O)N3CCOCC3)cc2)s1: 99.6 nM
- CS(=O)(=O)Nc1ccc(-c2ncc(C(=O)NCc3cn(-c4cc(Cl)ccn4)nn3)s2)cc1: 340 nM
- O=C(NCc1cn(-c2cc(Cl)ccn2)nn1)c1cnc(-c2cccc(NS(=O)(=O)N3CCOCC3)c2)s1: 436 nM
- CS(=O)(=O)c1ccc(-c2ncc(C(=O)NCc3cn(-c4cc(Br)ccn4)nn3)s2)cc1: 166 nM

----------
assay: Tmax in BALB/c mouse at 10 mg/kg, po measured for 24 hrs by LC-MS/MS analysis; type: ADME, organism-based; details: in vivo
# Tmax values compiled below
MEASUREMENT_NAME: Tmax (h)

* CS(=O)(=O)c1ccc(-c2nc(C(=O)NCc3cn(-c4cc(Cl)ccn4)nn3)cs2)cc1 | 2
* O=C(NCC1(N2CCN(c3ccccc3)CC2)CCOCC1)c1cccnc1Sc1ccccc1 | 0.08
* CS(=O)(=O)c1ccc(-c2nc(C(=O)NCc3cn(-c4cc(Br)ccn4)nn3)cs2)cc1 | 1.17
* CS(=O)(=O)c1ccc(-c2ncc(C(=O)NCc3cn(-c4cc(Cl)ccn4)nn3)s2)cc1 | 2
* CS(=O)(=O)c1ccc(-c2ncc(C(=O)NCc3cn(-c4cc(Br)ccn4)nn3)s2)cc1 | 2
